Taken from PubChem BioAssay (NCI).

Measured TGI values are reported for all entries that follow.
- Tested on: HT29 colon
- assay protocol: NCI tumour cell line growth inhibition, 48 h

CCC1CN2CCc3c([nH]c4ccccc34)C2C[C@@H]1CC(=O)N(C)C (some centres undefined) = > 100 µM

// returns reported TGI for input "O=c1oc2cc(O)ccc2c(O)c1C(c1cccnc1)c1c(O)c2ccc(O)cc2oc1=O"
> 100 µM

Which measured TGI value corresponds to "COc1ccc(/C=C2\N=C(c3ccccc3)N(N=C3NC(=O)CC(=O)N3)C2=O)cc1" ?
> 100 µM

Entry "Nc1nc(Cl)cc(NCCC2(CO)CCC2)n1" : reported TGI = ?
> 100 µM

Item under review: CCOC(=O)C(C(=S)Nc1ccccc1)c1nn2c(=O)cc(C)nc2s1 (centres undefined) . Reported TGI?
41.4 µM

State the recorded TGI for this entry: "O=C1c2ccccc2C(=O)c2c1ccc(C1C(=O)c3ccccc3C1=O)c2-c1c(C2C(=O)c3ccccc3C2=O)ccc2c1C(=O)c1ccccc1C2=O"
> 100 µM

What value of TGI has been reported for the following compound? "O=C(Nc1nc2ncn(CCNCc3ccccc3)c2c(=O)[nH]1)c1ccccc1"
> 100 µM

Consider the compound shown here: "COc1cc(O)c(C(=O)/C=C/c2ccc(O)cc2)c(O)c1[C@@H]1C[C@H](CCc2ccc(O)cc2)O[C@H](c2ccc(O)cc2)C1" What is its recorded TGI?
11.2 µM

Requested read-out: TGI. Entry: "CCCCCCCCCCCCCP(=O)(O)OCC"
> 100 µM

If you can, please state the reported TGI value of "CC(=O)O[C@]1(C(C)=O)CC[C@H]2[C@@H]3C=C(C)C4=CC(=O)CC[C@]4(C)[C@H]3CC[C@@]21C" .
> 100 µM
